# target system: human MCH-1R (human, UniProt Q99705 1-353)
# Sequence (Q99705 whole entry, form in doubt): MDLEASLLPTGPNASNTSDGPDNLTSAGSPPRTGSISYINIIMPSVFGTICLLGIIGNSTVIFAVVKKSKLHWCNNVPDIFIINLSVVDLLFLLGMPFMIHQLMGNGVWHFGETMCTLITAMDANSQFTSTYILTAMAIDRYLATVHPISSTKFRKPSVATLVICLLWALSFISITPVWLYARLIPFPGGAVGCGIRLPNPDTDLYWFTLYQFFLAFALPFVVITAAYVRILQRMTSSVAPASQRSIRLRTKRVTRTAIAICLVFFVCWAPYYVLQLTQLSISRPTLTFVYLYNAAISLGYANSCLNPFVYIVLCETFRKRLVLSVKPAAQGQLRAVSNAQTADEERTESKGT
# measurement description: cell-based or functional assay
Bridges are numbered along the chain shown (N, C = ends). [ ]: non-standard residue; d: D form. The star is where a group is joined. Pentanoyl(5-guanidino) = NC(N)=NCCCCC(=O)*; Aib = CC(C)(N)C(=O)O
recorded metric: EC50 (aequorin functional assay) (nM)

The examples below pair each entry with its known result.
| binder | EC50 (aequorin functional assay) (nM) |
| --- | --- |
| Ac-RCMLGRVFRPC-NH2 (disulfide 2-11; SMILES CSCC[C@@H]1NC(=O)[C@@H](NC(=O)[C@H](CCCNC(=N)N)NC(C)=O)CSSC[C@@H](C(N)=O)NC(=O)[C@@H]2CCCN2C(=O)[C@H](CCCNC(=N)N)NC(=O)[C@H](Cc2ccccc2)NC(=O)[C@H](C(C)C)NC(=O)[C@H](CCCNC(=N)N)NC(=O)CNC(=O)[C@H](CC(C)C)NC1=O, also called Phe^13) [SEQ. ID. NO. 27] | 46 |
| Ac-RCML[dS]RVYRPC-NH2 (disulfide 2-11 (inferred), also called D-Ser^10) [SEQ. ID. NO. 19] | 2560 |
| Ac-RCML[Aib]RVYRPC-NH2 (disulfide 2-11; SMILES CSCC[C@@H]1NC(=O)[C@@H](NC(=O)[C@H](CCCNC(=N)N)NC(C)=O)CSSC[C@@H](C(N)=O)NC(=O)[C@@H]2CCCN2C(=O)[C@H](CCCNC(=N)N)NC(=O)[C@H](Cc2ccc(O)cc2)NC(=O)[C@H](C(C)C)NC(=O)[C@H](CCCNC(=N)N)NC(=O)C(C)(C)NC(=O)[C@H](CC(C)C)NC1=O, also called Aib^10) [SEQ. ID. NO. 11] | 1900 |
| Ac-RCML[dA]RVYRPC-NH2 (disulfide 2-11; SMILES CSCC[C@@H]1NC(=O)[C@@H](NC(=O)[C@H](CCCNC(=N)N)NC(C)=O)CSSC[C@@H](C(N)=O)NC(=O)[C@@H]2CCCN2C(=O)[C@H](CCCNC(=N)N)NC(=O)[C@H](Cc2ccc(O)cc2)NC(=O)[C@H](C(C)C)NC(=O)[C@H](CCCNC(=N)N)NC(=O)[C@@H](C)NC(=O)[C@H](CC(C)C)NC1=O, also called D-Ala^10) [SEQ. ID. NO. 13] | 1360 |

[1] [Pentanoyl(5-guanidino)]CML[dA]RVYRPC-NH2 (disulfide 2-11 (inferred); not fully specified, also called (?-NH2)-Arg^6, D-Ala^10) [SEQ. ID. NO. 34]
[2] RCMLXRVYRPC (Nle^10 (norleucine)) [SEQ. ID. NO. 9]
[3] RCMLLRVYRPC (also called Leu^10) [SEQ. ID. NO. 8]
Rank the items in ascending order with respect to EC50 (aequorin functional assay). // format: requested-order list of labels 2, 3, 1
(2: 15 nM, 3: 23 nM, 1: 2000 nM)
